Reference for the values: ChEMBL document CHEMBL3124779

- protocol-text: AUC in dog at 2.5 mg/kg, po
- Type: ADME, organism-based, Canis lupus familiaris
- Design: dose 2.5 mg/kg, route oral
- test-parameters: plasma
endpoint-label: AUC (ng·h/mL)

Worked examples follow.
COC(=O)N[C@H](C(=O)N1CCC[C@H]1C(=O)Nc1ccc([C@@H]2CC[C@@H](c3ccc(NC(=O)[C@@H]4CCCN4C(=O)[C@@H](NC(=O)OC)C(C)C)cc3)N2c2ccc(C(C)(C)C)cc2)cc1)C(C)C [OMBITASVIR]
8000
COC(=O)N[C@H](C(=O)N1CCC[C@H]1C(=O)Nc1ccc([C@H]2CC[C@H](c3ccc(NC(=O)[C@@H]4CCCN4C(=O)[C@@H](NC(=O)OC)C(C)C)cc3)N2c2ccc(C(F)(F)F)cc2)cc1)C(C)C
370

P: COC(=O)N[C@H](C(=O)N1CCC[C@H]1C(=O)Nc1ccc([C@H]2CC[C@H](c3ccc(NC(=O)[C@@H]4CCCN4C(=O)[C@@H](NC(=O)OC)C(C)(C)C)cc3)N2c2ccc(F)cc2)cc1)C(C)(C)C
Q: COC(=O)N[C@H](C(=O)N1CCC[C@H]1C(=O)Nc1ccc([C@@H]2CC[C@@H](c3ccc(NC(=O)[C@@H]4CCCN4C(=O)[C@@H](NC(=O)OC)C(C)C)cc3)N2c2ccc(C(F)(F)F)cc2)cc1)C(C)C
R: COC(=O)N[C@H](C(=O)N1CCC[C@H]1C(=O)Nc1ccc([C@H]2CC[C@H](c3ccc(NC(=O)[C@@H]4CCCN4C(=O)[C@@H](NC(=O)OC)C(C)C)cc3)N2c2ccc(F)cc2)cc1)C(C)C
Would you mind ranking these molecules by ascending AUC? The reply should contain the labels ordered as requested. Q, R, P
